Test system: M14 melanoma
run.description: NCI tumour cell line growth inhibition, 48 h
measured.quantity: TGI

A selection of reference data follows.
compound: O=C(NC1(C(=O)O)CCCC1)c1ccccc1
reported: > 100 µM

compound: O=C(/C(=N/Nc1ccccc1)c1ccc([N+](=O)[O-])cc1)c1ccc([N+](=O)[O-])cc1
reported: > 100 µM

compound: O=C(Nc1ccc2c(c1)OCCO2)C(=O)c1c[nH]c2ccccc12
reported: > 100 µM

Looking up COc1cc(S(=O)(=O)Nc2ccc(-c3csc(N4C(=O)C(Cl)C4c4cccs4)n3)cc2)ccc1Cl (centres undefined) , I found its TGI recorded as > 100 µM

Documented TGI of `Cc1ccc(C(=O)N/N=C2/C(=O)c3c4ccccc4cc4cccc2c34)cc1` : > 100 µM

Data point: `Cc1cc2c(cc1CO)N1Cc3cc(C)c(CO)cc3N(C2)C1` ; TGI = > 100 µM

Given item COc1ccc(-c2nsc3c2NC(=O)CC3c2cccc(Cl)c2)cc1 (centres undefined) , the value recorded as its TGI is > 100 µM

Lab note: measured TGI of COc1cc(NC(C)CCCNC(C)C)c2ncccc2c1OC (centres undefined) was > 100 µM

Sure, the documented TGI for `O=c1c2cccnc2ncn1CCCN1CCCC1` is > 100 µM

Data origin, for the record: PubChem BioAssay (NCI)
